- assay-remarks: in vitro
- test-settings: rat, hepatocytes
observation-type: half-life

Ask: Return value of half-life for input CCOc1ccc2ccc(=O)oc2c1 [7-Ethoxycoumarin] , no commentary.
Reply: 1.03 h

###

- assay-remarks: Hepatocyte stability assay, rat
- Type: in vitro ADME
- test-settings: SD, hepatocytes; rat (r); 1 μM; read-out: Hepatocyte stability (t½)
observation-type: half-life at 1 μM (h)
One number for each entry, in h.

Ask: Return value of half-life at 1 μM for input O=C(CNC(=O)c1ccc(C2=NO[C@@](c3cc(Cl)cc(C(F)(F)F)c3)(C(F)(F)F)C2)c2ccccc12)NCC(F)(F)F [(S)-afoxolaner] , no commentary.
Reply: 1

// provenance: patent US20200061026A1
